Every entry's value here was drawn from paper PMC9989926.

Molecular target: mfT1R2c/mfT1R3 (Oryzias latipes, UniProt Q2MHK2+Q2MHK3, Q2MHK3:V394L)
Sequence (Q2MHK2 entry or part of it): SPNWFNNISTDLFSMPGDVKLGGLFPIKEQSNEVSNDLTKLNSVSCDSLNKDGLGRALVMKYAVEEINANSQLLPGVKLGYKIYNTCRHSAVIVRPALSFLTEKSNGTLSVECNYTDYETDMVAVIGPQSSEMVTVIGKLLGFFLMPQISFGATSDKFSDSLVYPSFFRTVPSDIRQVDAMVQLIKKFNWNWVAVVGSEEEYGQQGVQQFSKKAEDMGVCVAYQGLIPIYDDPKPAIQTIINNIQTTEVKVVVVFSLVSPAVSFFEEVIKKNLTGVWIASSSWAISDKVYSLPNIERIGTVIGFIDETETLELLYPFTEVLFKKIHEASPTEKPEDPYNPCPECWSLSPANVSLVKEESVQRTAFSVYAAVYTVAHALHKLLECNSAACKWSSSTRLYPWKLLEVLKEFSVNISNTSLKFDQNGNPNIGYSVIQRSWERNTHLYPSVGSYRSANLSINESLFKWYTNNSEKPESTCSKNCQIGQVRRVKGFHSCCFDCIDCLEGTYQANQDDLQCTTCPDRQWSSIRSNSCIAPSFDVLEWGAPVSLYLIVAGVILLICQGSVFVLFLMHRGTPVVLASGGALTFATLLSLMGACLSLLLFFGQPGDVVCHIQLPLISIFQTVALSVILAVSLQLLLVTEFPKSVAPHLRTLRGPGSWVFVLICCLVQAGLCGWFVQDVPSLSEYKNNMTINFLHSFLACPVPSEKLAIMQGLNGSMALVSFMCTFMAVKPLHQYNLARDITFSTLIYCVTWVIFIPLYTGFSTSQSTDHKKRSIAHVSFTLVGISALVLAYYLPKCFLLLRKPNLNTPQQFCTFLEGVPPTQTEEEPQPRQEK
Sequence (Q2MHK3 entry or part of it V394L): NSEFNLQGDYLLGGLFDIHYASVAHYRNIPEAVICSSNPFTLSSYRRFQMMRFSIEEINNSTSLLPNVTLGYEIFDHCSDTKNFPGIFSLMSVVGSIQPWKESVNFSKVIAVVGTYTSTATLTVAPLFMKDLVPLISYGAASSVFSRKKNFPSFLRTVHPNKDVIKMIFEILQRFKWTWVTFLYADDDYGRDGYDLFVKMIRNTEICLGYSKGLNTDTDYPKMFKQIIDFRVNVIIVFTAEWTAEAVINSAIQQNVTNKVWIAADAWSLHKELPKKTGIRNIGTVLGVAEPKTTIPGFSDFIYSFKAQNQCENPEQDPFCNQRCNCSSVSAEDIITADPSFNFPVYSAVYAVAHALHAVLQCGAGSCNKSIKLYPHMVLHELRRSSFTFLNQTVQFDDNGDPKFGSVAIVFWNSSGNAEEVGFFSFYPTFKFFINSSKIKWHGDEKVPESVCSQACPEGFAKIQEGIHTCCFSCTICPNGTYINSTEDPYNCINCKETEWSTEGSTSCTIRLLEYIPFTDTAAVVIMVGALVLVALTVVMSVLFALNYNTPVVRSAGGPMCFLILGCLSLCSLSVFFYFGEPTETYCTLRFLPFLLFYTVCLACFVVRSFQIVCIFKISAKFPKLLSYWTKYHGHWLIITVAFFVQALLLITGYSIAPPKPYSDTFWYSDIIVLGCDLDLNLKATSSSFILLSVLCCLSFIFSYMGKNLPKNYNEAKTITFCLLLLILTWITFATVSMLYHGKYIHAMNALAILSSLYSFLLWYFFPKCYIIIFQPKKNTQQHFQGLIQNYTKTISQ
Test: cell-based
readoutType: EC50 (µM)
// units = µM; emit number, no label

Task: Given the molecule O=C(O)[C@@H]1CCCN1 [L-proline] , what is its reported EC50?
Output: 4.43

----------
Target: mfT1R2b/mfT1R3 (Oryzias latipes, UniProt Q2MHK2+Q2MHK4)
Construct: entire coding regions, stably co-expressed with chimeric G-protein G16gust44 in Flp-In 293 cells; heterodimer; with Taste receptor type 1 member 3
Sequence (Q2MHK4 entry or part of it, one chain of several): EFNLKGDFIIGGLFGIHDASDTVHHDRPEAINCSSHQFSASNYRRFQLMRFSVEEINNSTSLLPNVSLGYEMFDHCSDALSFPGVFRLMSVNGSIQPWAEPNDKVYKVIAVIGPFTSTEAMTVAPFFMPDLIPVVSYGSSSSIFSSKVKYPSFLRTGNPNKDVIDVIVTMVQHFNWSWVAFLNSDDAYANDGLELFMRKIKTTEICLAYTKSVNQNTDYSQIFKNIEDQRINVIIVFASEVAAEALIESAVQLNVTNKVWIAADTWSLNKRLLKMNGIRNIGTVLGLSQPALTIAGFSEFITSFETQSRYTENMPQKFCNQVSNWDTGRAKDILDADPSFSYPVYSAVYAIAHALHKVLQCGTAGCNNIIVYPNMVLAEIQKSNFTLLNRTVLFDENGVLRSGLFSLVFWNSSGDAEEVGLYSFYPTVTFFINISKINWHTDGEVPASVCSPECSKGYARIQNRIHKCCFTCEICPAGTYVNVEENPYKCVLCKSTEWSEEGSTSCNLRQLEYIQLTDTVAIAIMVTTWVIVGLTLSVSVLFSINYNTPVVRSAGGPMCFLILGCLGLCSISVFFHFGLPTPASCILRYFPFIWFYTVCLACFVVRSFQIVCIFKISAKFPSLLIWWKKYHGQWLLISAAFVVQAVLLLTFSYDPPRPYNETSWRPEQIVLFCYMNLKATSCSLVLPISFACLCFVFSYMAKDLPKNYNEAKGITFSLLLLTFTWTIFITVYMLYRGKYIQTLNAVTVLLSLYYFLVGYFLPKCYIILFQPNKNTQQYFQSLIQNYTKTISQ
Assay: FLIPR Calcium […] cell-based calcium assay, FlexStation […]
I'd appreciate it if you could supply EC50 values for the items below.
// units = mM; emit number, no label

Task: Given the compound C[C@H](N)C(=O)O [L-alanine] , what is its reported EC50?
Output: 1.75

Task: Item: O=C(O)[C@@H]1CCCN1 [L-proline]
Output: 3.05
